Some molecules, each annotated with its measured SALL4 ZNF1-2 GFP/RFP Relative Abundance.
tgt: SALL4 ZNF1-2 (Homo sapiens, UniProt Q96SW2+Q9UJQ4)
Construct: IKZF1Δ, IKZF2Δ, GSPT1 and SALL4 ZnF1-2 were subcloned; expressed in transfected cells; host or cells: Flp-In 293
Sequence (Q9UJQ4 378-438 limits assumed): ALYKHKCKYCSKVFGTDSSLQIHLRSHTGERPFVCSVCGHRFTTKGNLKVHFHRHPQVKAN
Sequence (Q96SW2 whole entry): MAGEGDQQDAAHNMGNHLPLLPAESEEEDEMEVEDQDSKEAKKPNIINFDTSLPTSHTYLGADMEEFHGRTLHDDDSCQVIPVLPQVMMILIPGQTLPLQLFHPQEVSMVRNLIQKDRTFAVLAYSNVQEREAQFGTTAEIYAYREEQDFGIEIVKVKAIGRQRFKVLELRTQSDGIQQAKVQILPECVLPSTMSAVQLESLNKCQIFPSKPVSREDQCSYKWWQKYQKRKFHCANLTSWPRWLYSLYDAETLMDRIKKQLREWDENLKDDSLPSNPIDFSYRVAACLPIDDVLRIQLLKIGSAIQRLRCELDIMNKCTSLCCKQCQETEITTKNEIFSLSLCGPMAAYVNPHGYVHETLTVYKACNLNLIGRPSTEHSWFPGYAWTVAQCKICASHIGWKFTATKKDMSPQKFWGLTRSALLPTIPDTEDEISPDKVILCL
Sequence (Q16531 whole entry partner): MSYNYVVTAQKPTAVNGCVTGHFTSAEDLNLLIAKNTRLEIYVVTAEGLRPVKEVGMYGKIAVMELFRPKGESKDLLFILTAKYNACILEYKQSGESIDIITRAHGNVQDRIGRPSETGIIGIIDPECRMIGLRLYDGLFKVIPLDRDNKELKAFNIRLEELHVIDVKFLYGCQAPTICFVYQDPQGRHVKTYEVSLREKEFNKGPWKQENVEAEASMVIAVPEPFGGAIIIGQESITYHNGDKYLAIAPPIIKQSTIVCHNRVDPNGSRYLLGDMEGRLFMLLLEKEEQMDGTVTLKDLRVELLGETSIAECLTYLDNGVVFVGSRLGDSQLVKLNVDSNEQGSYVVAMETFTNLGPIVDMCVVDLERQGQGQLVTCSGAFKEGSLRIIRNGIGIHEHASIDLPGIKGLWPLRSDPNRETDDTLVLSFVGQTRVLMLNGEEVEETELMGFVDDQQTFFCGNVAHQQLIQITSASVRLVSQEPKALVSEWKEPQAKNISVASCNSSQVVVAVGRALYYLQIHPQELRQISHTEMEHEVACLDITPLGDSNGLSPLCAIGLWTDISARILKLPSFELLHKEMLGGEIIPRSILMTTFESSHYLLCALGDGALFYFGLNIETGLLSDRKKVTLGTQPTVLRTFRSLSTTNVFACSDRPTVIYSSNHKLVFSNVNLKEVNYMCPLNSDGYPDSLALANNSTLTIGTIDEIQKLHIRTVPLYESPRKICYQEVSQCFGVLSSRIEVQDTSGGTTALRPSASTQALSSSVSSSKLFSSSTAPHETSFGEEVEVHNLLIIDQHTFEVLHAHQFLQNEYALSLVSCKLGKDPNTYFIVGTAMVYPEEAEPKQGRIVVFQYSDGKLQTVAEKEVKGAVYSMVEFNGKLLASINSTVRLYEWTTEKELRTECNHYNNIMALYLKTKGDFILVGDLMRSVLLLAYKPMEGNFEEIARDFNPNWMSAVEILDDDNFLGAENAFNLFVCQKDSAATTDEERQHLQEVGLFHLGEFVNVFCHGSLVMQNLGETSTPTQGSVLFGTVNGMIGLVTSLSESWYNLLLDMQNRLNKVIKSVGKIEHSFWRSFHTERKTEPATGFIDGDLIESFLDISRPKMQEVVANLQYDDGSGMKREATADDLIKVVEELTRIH
measurementNotes: Cellular degradation assay, eGFP-SALL4 ZnF1-2 fusion with mCherry reporter in Flp-In 293 cells
Type: cell-based
runParameters: compound concentration 2.00E−06; 5 h incubation; n=1
Note: the reply should be a number with no unit written.

| molecule | propertyMeasured | reported |
| --- | --- | --- |
| Cc1ccc(NC(=O)NCc2ccc3c(c2)CN(C2CCC(=O)NC2=O)C3=O)cc1Cl (stereo not shown) [CC-885, reference compound] | SALL4 ZNF1-2 GFP/RFP Relative Abundance | 0.876 |

SALL4 ZNF1-2 GFP/RFP Relative Abundance reading for CN(C)C(=O)Cc1cccc(NC2=CC(=O)N(C3CCC(=O)NC3=O)C2=O)c1 (stereo not shown) : 0.903

SALL4 ZNF1-2 GFP/RFP Relative Abundance reading for O=C1CCC(N2C(=O)C=C(Nc3ccc4cn[nH]c4c3)C2=O)C(=O)N1 (stereo not shown) : 0.889

SALL4 ZNF1-2 GFP/RFP Relative Abundance reading for Cc1ccc(NC(=O)NCCNC2=CC(=O)N(C3CCC(=O)NC3=O)C2=O)cc1Cl (stereo not shown) : 0.994

SALL4 ZNF1-2 GFP/RFP Relative Abundance reading for O=C1CCC(N2C(=O)C=C(Nc3cccc(Cl)c3)C2=O)C(=O)N1 (stereo not shown) : 0.869

SALL4 ZNF1-2 GFP/RFP Relative Abundance reading for COC(=O)CCNC1=CC(=O)N(C2CCC(=O)NC2=O)C1=O (stereo not shown) : 0.944

SALL4 ZNF1-2 GFP/RFP Relative Abundance reading for O=C1CCC(N2C(=O)C=C(Nc3cccc(-c4cc[nH]n4)c3)C2=O)C(=O)N1 (stereo not shown) : 0.626

This collection of values is drawn from patent US12227488B2.
